- targetSystem: 4-aminobutyrate aminotransferase, mitochondrial (Rattus norvegicus)
testReadout: pIC50
Lab note: report pIC50 as minus log10 of the concentration in molar units, number only.

Need pIC50 of O=Cc1ccc(O)cc1 [4-HYDROXYBENZALDEHYDE] , thanks.
4.78

* * *

- targetSystem: 4-aminobutyrate aminotransferase, mitochondrial (Rattus norvegicus, UniProt P50554)
- Sequence (P50554 whole entry): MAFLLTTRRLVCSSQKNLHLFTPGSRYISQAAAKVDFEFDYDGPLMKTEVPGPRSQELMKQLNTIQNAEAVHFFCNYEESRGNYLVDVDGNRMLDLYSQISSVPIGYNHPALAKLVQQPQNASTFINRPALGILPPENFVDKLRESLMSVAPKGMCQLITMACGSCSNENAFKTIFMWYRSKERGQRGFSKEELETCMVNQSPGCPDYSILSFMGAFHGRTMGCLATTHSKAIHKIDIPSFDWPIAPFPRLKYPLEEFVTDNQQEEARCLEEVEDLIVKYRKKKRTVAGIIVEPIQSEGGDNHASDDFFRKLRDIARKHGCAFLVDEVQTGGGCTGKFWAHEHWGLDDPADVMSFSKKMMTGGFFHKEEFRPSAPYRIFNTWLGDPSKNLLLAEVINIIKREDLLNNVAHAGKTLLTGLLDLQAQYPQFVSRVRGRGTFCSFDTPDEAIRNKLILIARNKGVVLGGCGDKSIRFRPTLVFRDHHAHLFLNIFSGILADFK
testReadout: pKi
Lab note: report pKi as minus log10 of the concentration in molar units, number only.

Lab request: please report pKi under test system 4-aminobutyrate aminotransferase, mitochondrial (Rattus norvegicus, UniProt P50554) for O=C(CCCl)c1ccc(O)cc1
4.61
